Entries and their pKd values follow.
# MEASUREMENT TARGET: biotinylated recombinant hSIRPα (extracellular portion) (human, UniProt P78324 31-373, biotin (Sulfo-NHS-LC-LC-Biotin))
# Sequence (P78324 31-373): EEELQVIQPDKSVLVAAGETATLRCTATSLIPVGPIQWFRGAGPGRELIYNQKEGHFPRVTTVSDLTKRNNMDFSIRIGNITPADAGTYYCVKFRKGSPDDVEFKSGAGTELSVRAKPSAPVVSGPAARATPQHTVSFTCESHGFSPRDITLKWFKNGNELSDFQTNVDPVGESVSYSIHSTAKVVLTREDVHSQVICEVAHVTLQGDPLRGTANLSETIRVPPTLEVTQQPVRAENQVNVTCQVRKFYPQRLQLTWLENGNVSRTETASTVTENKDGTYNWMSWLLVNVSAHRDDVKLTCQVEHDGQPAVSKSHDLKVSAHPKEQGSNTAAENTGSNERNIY
# TEST DETAILS: BLI
Friendly reminder that pKd comes from taking -log10 of the concentration in mol/L.

Solved entries:
{"BINDER": "hSIRPα Nb S14 (VHH) VHH: EVQLVESGGGLVQPGGSLRLSCAASGFTANSYRMTWVRQAPGKGLEWVADIGTGNEWKYYPDSVKGRFTISRDAAKNTVYLQMNSLKPEDTAVYYCAKNGAVWYGEDGLDYWGKGTLVTVSS", "REPORTED RESULT": 7.78}
{"BINDER": "hSIRPα Nb S29 (VHH) VHH: EVQLVESGGGLVQPGGSLRLSCAASGFTSETYAIGWFRQAPGKEREGVSCISNDGGSRNYADSVKGRFTISRDNAKNTSYLQMNSLKPEDTAVYYCAAGKYYYCLGYVSDGMDYWGKGTPVTVSS", "REPORTED RESULT": 8.32}
{"BINDER": "hSIRPα Nb S8 (VHH) VHH: QVQLVESGGGLVQPGGSLRLSCADSEFRLDEYATGWFRQAPGKEREGVACISRSGSNTKYTDSVKGRFTISRDNAKKTVYLQMNSLKPEDTAVYYCAADLTSHYLSCSSYTDYNSWGQGTQVTVSS", "REPORTED RESULT": 9.34}
{"BINDER": "hSIRPα Nb S17 (VHH) VHH: QVQLVESGGGLVQPGGSLRLSCAASGFTLDSYVIGWFRQAPGKEREGVSCISQRIGSTDYADSVKGRFTISKDNAKNTAYLQMNALKPEDTAVYYCAAGRLYYSGTYCPQGGMSYWGKGSPVTVSS", "REPORTED RESULT": 7.58}

Shift focus to the following entry.
The recorded pKd for hSIRPα Nb S12 (VHH) VHH: QVQLVESGGGLVQPGGSLRLSCLVSGFSSSYYAIGWFRQAPGKEREGVSCITRSGDTTNYADSVKGRFTISRDDARNTVYLQMNSLKTEDTAVYSCALWAWAGSGRLRCTASEYGHWGQGTQVTVSS is 7.59
